Data credit: patent US20230125667A1

- System: BT-549
- Method notes: NCI-60 growth inhibition: BT-549 (Breast Cancer)
- Assay type: cell-based, human
- Experimental parameters: Homo sapiens
Entries whose GI50 is below 2000 nM take yes; entries at or above 2000 nM take no.

Solved entries:
C=C1C(=O)O[C@H]2[C@H]1CC/C(COC(=O)NCc1ccc(Cn3c(=O)sn(CCCC)c3=O)cc1)=C\CC[C@@]1(C)O[C@@H]21
yes
C=C1C(=O)O[C@H]2[C@H]1CC/C(COC(=O)NCc1ccc(Cn3c(=O)sn(-c4ccc(OC)cc4)c3=O)cc1)=C\CC[C@@]1(C)O[C@@H]21
no
C=C1C(=O)O[C@H]2[C@H]1CC/C(COC(=O)NCc1ccc(Cn3c(=O)sn(CCCI)c3=O)cc1)=C\CC[C@@]1(C)O[C@@H]21
yes
C=C1C(=O)O[C@H]2[C@H]1CC/C(COC(=O)NCc1ccc(Cn3c(=O)sn(-c4ccccc4)c3=O)cc1)=C\CC[C@@]1(C)O[C@@H]21
no

I'd appreciate it if you could check whether "C=C1C(=O)O[C@H]2[C@H]1CC/C(COC(=O)NCc1ccc(Cn3c(=O)sn(CCI)c3=O)cc1)=C\CC[C@@]1(C)O[C@@H]21" has GI50 smaller than 2000 nM. no

* * *

- Tested on: MDA-MB-468
- Method notes: NCI-60 growth inhibition: MDA-MB-468 (Breast Cancer)
- Assay type: cell-based, human
- Experimental parameters: Homo sapiens; MDA-MB-468 (Breast Cancer); read-out: GI50
Observation type: GI50 (nM)
One number for each entry, in nM.

Check out these entries, answers already filled in.
C=C1C(=O)O[C@H]2[C@H]1CC/C(COC(=O)NCc1ccc(Cn3c(=O)sn(CCI)c3=O)cc1)=C\CC[C@@]1(C)O[C@@H]21
1250
C=C1C(=O)O[C@H]2[C@H]1CC/C(COC(=O)NCc1ccc(Cn3c(=O)sn(CCCI)c3=O)cc1)=C\CC[C@@]1(C)O[C@@H]21
1540
C=C1C(=O)O[C@H]2[C@H]1CC/C(COC(=O)NCc1ccc(Cn3c(=O)sn(CCCC)c3=O)cc1)=C\CC[C@@]1(C)O[C@@H]21
1730

Looking for the measured GI50 of "C=C1C(=O)O[C@H]2[C@H]1CC/C(COC(=O)NCc1ccc(Cn3c(=O)sn(-c4ccc(OC)cc4)c3=O)cc1)=C\CC[C@@]1(C)O[C@@H]21" , can you help? 1530

* * *

Kindly state GI50 for each of the entries shown.
- Test system: UO-31
- Method notes: NCI-60 growth inhibition: UO-31 (Renal Cancer)
- Type: cell-based, human
- Experimental parameters: Homo sapiens
Give bare numbers, in nM.

Check out these entries, answers already filled in.
C=C1C(=O)O[C@H]2[C@H]1CC/C(COC(=O)NCc1ccc(Cn3c(=O)sn(CCCC)c3=O)cc1)=C\CC[C@@]1(C)O[C@@H]21 [BSK-230]
1450
C=C1C(=O)O[C@H]2[C@H]1CC/C(COC(=O)NCc1ccc(Cn3c(=O)sn(CCCI)c3=O)cc1)=C\CC[C@@]1(C)O[C@@H]21 [BSK-259]
1520
C=C1C(=O)O[C@H]2[C@H]1CC/C(COC(=O)NCc1ccc(Cn3c(=O)sn(CCI)c3=O)cc1)=C\CC[C@@]1(C)O[C@@H]21 [BSK-187]
1650
C=C1C(=O)O[C@H]2[C@H]1CC/C(COC(=O)NCc1ccc(Cn3c(=O)sn(-c4ccc(OC)cc4)c3=O)cc1)=C\CC[C@@]1(C)O[C@@H]21 [BSK-271]
1560

Let us examine a further case.
Looking for the measured GI50 of C=C1C(=O)O[C@H]2[C@H]1CC/C(COC(=O)NCc1ccc(Cn3c(=O)sn(-c4ccccc4)c3=O)cc1)=C\CC[C@@]1(C)O[C@@H]21 [BSK-197] , can you help? 1680
